target: Estrogen receptor (Homo sapiens); assay: Displacement of [3H]-estradiol from human ERalpha LBD expressed in Escherichia coli assessed as relative binding affinity relative to estradiol
endpoint label: RBA (%)

The examples below pair each entry with its known result.
• Oc1ccc(-c2noc(-c3ccc(O)cc3)c2/C=C/c2ccc(C(F)(F)F)cc2)cc1 = 5.3
• Oc1ccc(-c2noc(-c3ccc(O)cc3)c2-c2ccc(O)cc2)cc1 = 30

1 = Oc1ccc(-c2noc(-c3ccc(O)cc3)c2/C=C/c2ccc(Cl)cc2)cc1
2 = Oc1ccc(-c2noc(-c3ccc(O)cc3)c2/C=C/c2ccccc2)cc1
3 = Oc1ccc(-c2noc(-c3ccc(O)cc3)c2/C=C\c2ccccc2)cc1
Q: Your job: order these 3 records by RBA, ascending. Write the labels, ordered according to the request.
A: 1, 2, 3

---

biological target: Estrogen receptor (Homo sapiens) (UniProt P03372); assay: Displacement of [3H]-estradiol from human ERalpha LBD expressed in Escherichia coli assessed as relative binding affinity relative to estradiol
Sequence (P03372 whole entry, the tested form may be a part): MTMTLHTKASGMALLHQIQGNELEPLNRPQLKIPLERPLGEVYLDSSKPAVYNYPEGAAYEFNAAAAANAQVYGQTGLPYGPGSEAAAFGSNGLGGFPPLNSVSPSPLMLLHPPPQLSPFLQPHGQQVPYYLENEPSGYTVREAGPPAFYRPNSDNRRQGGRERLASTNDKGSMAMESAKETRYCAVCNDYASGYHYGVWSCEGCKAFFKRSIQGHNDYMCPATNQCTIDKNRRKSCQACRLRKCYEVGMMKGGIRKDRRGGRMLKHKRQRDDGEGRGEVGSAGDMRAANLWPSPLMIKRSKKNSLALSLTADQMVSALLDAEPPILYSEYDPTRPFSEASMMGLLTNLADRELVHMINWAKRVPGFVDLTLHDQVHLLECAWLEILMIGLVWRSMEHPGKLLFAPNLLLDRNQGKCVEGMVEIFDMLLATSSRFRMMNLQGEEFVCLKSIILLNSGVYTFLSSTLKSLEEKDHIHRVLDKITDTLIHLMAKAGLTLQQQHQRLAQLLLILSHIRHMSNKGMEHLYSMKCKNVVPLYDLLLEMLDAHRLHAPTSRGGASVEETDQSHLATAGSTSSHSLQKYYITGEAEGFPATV
endpoint label: RBA (%)

The examples below pair each entry with its known result.
• Oc1ccc(-c2noc(-c3ccc(O)cc3)c2/C=C/c2cccc(O)c2)cc1 = 8.7
• Oc1ccc(-c2noc(-c3ccc(O)cc3)c2/C=C/c2cccc(C(F)(F)F)c2)cc1 = 1.5
• CCCCCC/C=C/c1c(-c2ccc(O)cc2)noc1-c1ccc(O)cc1 = 2.5
• CCCCC/C=C/c1c(-c2ccc(O)cc2)noc1-c1ccc(O)cc1 = 1.8
• Oc1ccc(-c2noc(-c3ccc(O)cc3)c2/C=C/c2ccc(F)cc2)cc1 = 3.1

1 = CCCCCCC/C=C/c1c(-c2ccc(O)cc2)noc1-c1ccc(O)cc1
2 = CC(C)(C)/C=C/c1c(-c2ccc(O)cc2)noc1-c1ccc(O)cc1
3 = Oc1ccc(/C=C/c2c(-c3ccc(O)cc3)noc2-c2ccc(O)cc2)cc1
4 = Cc1ccc(/C=C/c2c(-c3ccc(O)cc3)noc2-c2ccc(O)cc2)cc1
5 = CCc1c(-c2ccc(O)cc2)nn(-c2ccc(O)cc2)c1-c1ccc(O)cc1
Q: Ordering criterion: RBA; begin with the maximum. Write the labels, ordered according to the request.
A: 5, 3, 2, 1, 4
(5: 36%, 3: 16.4%, 2: 4.3%, 1: 1.3%, 4: 0.6%)
